# Target Under Test: human mGluR3 (Homo sapiens)
# Construct: expressed in transfected cells; host or cells: AV12 cells (adenovirus-transformed Syrian hamster cell line) stably expressing RGT and GLT, co-transfected with Galpha15
# Assay: Antagonism of glutamate-induced increase in intracellular calcium (FLIPR) in mGluR3-expressing AV12 cells
# Format: cell-based
# Recorded Conditions: antagonism of 50 μM glutamate-induced calcium response, AV12 cells expressing human mGluR3 and Gα15, Fluo-3AM
Where a name gives a salt, the structure may show the parent alone.
Property Measured: pIC50
The quantity pIC50 is defined as the negative base-10 logarithm of the molar concentration.

Worked cases, pIC50 given:
# Compound, Assay Value
data = [
    ("C#Cc1ccc(N2CC[C@H](NCc3ccc(Cl)cc3Cl)C2)nc1 [Example 87]", 6.84),
    ("FC1CN(c2ncc(Br)cn2)CC1NCc1ccc(Cl)cc1Cl (stereo not drawn) [Example 101, hydrochloride]", 5.31),
    ("O=C1CN(c2ncc(Br)cn2)CC1NCc1ccc(Cl)cc1Cl (stereo not drawn) [Example 121]", 5.77),
    ("Fc1ccc(N2CC[C@H](NCc3ccccc3I)C2)cn1 [Example 59, hydrochloride]", 5.24),
    ("Clc1cnc(N2CC[C@H](NCc3ccc(Cl)cc3Cl)C2)nc1 [Example 134]", 7.11),
]

Consider the record given below.
Please give the documented pIC50 of N#Cc1cnc(N2CC[C@H](NCc3ccc(Cl)cc3Cl)C2)nc1 [Example 123] 5.93

###

# Target Under Test: human mGluR3 (Homo sapiens, UniProt Q14832)
# Sequence (Q14832 23-879): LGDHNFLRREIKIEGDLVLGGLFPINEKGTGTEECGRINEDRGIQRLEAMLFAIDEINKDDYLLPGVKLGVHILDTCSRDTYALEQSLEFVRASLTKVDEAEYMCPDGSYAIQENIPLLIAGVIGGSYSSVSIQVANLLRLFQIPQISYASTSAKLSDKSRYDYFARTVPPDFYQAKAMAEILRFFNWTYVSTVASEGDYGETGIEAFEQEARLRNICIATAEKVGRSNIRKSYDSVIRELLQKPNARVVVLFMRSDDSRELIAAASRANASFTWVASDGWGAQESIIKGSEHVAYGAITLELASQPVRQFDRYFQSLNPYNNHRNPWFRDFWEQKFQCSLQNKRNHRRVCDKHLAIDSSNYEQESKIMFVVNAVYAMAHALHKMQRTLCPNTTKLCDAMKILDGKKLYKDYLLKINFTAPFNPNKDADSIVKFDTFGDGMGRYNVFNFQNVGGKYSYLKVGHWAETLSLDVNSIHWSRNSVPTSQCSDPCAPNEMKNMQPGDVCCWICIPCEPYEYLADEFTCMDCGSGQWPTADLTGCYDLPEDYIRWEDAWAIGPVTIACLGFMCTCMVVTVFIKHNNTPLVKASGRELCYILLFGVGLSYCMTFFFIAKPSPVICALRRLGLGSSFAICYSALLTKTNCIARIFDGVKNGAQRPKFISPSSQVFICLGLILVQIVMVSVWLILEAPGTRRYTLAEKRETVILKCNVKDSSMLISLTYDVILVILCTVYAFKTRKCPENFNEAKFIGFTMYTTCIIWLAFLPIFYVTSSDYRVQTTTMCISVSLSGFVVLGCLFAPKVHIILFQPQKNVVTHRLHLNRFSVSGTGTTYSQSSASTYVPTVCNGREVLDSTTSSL
# Assay: Antagonism of glutamate-induced increase in intracellular calcium (FLIPR) in mGluR3-expressing AV12 cells
# Recorded Conditions: antagonism of 50 μM glutamate-induced calcium response, AV12 cells expressing human mGluR3 and Gα15, Fluo-3AM
Property Measured: pIC50
Please note pIC50 is a logarithmic value: minus log10 of concentration in mol/L. Answer with that number alone.

# Structure, pIC50
records = [
    ("CC(=O)c1ccc(N2CC[C@H](NCc3ccc(Cl)cc3Cl)C2)s1", 5.41),
    ("O=[N+]([O-])c1ccc(N2CC[C@H](NCc3ccc(Cl)cc3Cl)C2)nc1", 6.72),
]

Lab note: next compound to report on.
Name the value of pIC50 reported for `Clc1ccc(CN[C@H]2CCN(c3ccc(-c4ccccc4)cn3)C2)c(Cl)c1` when tested on human mGluR3 (Homo sapiens, UniProt Q14832). 5.64

The measured values listed here are drawn from patent US7868014B2.
